assay: qHTS of pediatric cancer cell lines to identify multiple opportunities for drug repurposing: Confirmatory screen for U-2 OS cells (AID 1347122); details: U-2 OS osteosarcoma cell viability; series mostly up to 45.9 µM; also: nearly all actives have a fitted effect of over 65% in size
Records with an inconclusive call do not appear. The source made the active and inactive calls. Calls follow the shape of the dose curve; as a rule, active = well fitted cell-killing curve with a large enough effect; inconclusive = small, poorly fitted or top-dose-only effect; inactive = no such curve, though single readings can be large or run the other way.
Could you please pick one outcome from this set? True for active, False for inactive

S=P(N1CC1)(N1CC1)N1CC1: False
CC1CC2C3CCC4=CC(=O)C=C[C@]4(C)[C@@]3(F)[C@@H](O)C[C@]2(C)[C@@]1(O)C(=O)CO (stereo not given in full): False

*Q* Just curious, what result did COc1cc2c(Nc3ccc(Br)cc3F)ncnc2cc1OCC1CCN(C)CC1 get here?
*A* False

*Q* Just curious, what result did COC(=O)Nc1nc2ccc(Sc3ccccc3)cc2[nH]1 get here?
*A* True

*Q* Just curious, what result did NC(=O)c1cccnc1 get here?
*A* False

*Q* Just curious, what result did COc1cc([C@@H]2c3cc4c(cc3[C@H](O)[C@H]3COC(=O)[C@H]23)OCO4)cc(OC)c1OC get here?
*A* True

*Q* Just curious, what result did CC(C)NCC(O)c1ccc(NS(C)(=O)=O)cc1 (stereo not given) get here?
*A* False

*Q* Just curious, what result did CCC(=O)O[C@]1(C(=O)CCl)[C@@H](C)C[C@H]2[C@@H]3CCC4=CC(=O)C=C[C@]4(C)[C@@]3(F)[C@@H](O)C[C@@]21C get here?
*A* False

*Q* Just curious, what result did CN1CCCC(n2nc(Cc3ccc(Cl)cc3)c3ccccc3c2=O)CC1 (stereo not given) get here?
*A* False

*Q* Just curious, what result did CCOC(=O)[C@H](CCc1ccccc1)N[C@H]1CS[C@H](c2cccs2)CN(CC(=O)O)C1=O get here?
*A* False
